# Method summary: In vitro liver microsomal metabolism study, human
# Format: in vitro ADME
# Assay context: human liver microsomes, 1 μM, NADPH + UDPGA
Property name: CLint scaled at 1 µM (mL/min/kg)
Give your result in mL/min/kg as a bare value.

Consider the molecule COc1ccc2c(c1)[C@]13CCCC[C@@H]1[C@H](C2)N(C)CC3 [Dextromethorphan, reference compound] and give its measured CLint scaled at 1 µM.
43.2

---

# Tested on: P-gp
# Method summary: Bidirectional permeability in Caco-2 cells
# Type: in vitro ADME
# Assay context: human, Caco-2, with LY335979 5 µM; 5 µM, + 5 µM LY335979 (P-gp inhibitor); read-out: Ratio (B/A), efflux ratio
Property name: efflux ratio at 60 min, 5 µM
Answer as a number with no unit attached.

Query (molecule): O=C(CCCCCCCn1cc(CCCF)nn1)N1[C@@H]2[C@H](O)[C@@H](O)[C@@H](O)[C@@H](CO)[C@@H]21 [AGAL] ; field requested: efflux ratio at 60 min, 5 µM
3.9
